Test: log P determination by HPLC on reversed-phase columns (C 18), analogously to OECD Guideline 117
Assay type: physicochemical
Conditions: LC-MS in the neutral range, pH 7.8, 0.001 molar aqueous ammonium hydrogencarbonate / acetonitrile, HPLC reversed-phase C 18
Collected logP (neutral) values appear next to each entry.
measured.property: logP (neutral)

> print(dat)
                                    molecule  number
 1  Cn1c(=O)n(C)n(-c2cc([S+]([O-])CC(F)(F)F)c(F)cc2F)c1=O (centres unmarked)    1.59
 2  Cc1cc(F)c(-n2c(=O)n(C3CCCCC3)c(=O)n2C)cc1SCC(F)(F)F    4.13
 3  CCn1c(=O)n(CC)n(-c2ccc(C)c([S+]([O-])CC(F)(F)F)c2)c1=O (centres unmarked)    2.19
 4  Cc1cc(F)c(-n2c(=O)n(C3CC3)c(=O)n2C)cc1SCC(F)(F)F [Example 35]    2.81
 5  Cc1cc(F)c(N2C(=O)C(=O)N(C(C)(C)C)C2=S)cc1[S+]([O-])CC(F)(F)F (centres unmarked)    3.41
 6  Cc1cc(F)c(-n2c(=O)n(C)c(=O)n2C2C=CCCC2)cc1[S+]([O-])CC(F)(F)F (centres unmarked)    2.61
 7  CCn1c(=O)n(C(C)C)c(=O)n1-c1ccc(C)c(SCC(F)(F)F)c1    3.73
 8  Cn1c(=O)n(C2CC2)c(=O)n1-c1cc(SCC(F)(F)F)c(F)cc1F    2.62
 9  Cc1cc(F)c(-n2c(=O)n(C3CC3)c(=O)n2C(C)(C)C)cc1SCC(F)(F)F    4.07
10  C=CCn1c(=O)n(C2CC2)c(=O)n1-c1ccc(C)c([S+]([O-])CC(F)(F)F)c1 (centres unmarked)    2.24
11  CCn1c(=O)n(C(C)(C)C)c(=O)n1-c1ccc(C)c(SCC(F)(F)F)c1    4.27
12  Cc1cc(F)c(-n2[nH]c(=O)n(C)c2=O)cc1SCC(F)(F)F    0.60
13  CCC(C)n1c(=O)n(C2CC2)c(=O)n1-c1cc(SCC(F)(F)F)c(C)cc1F (centres unmarked)    3.72
14  Cn1c(=O)n(C)n(-c2cc([S+]([O-])CC(F)(F)F)c(Br)cc2F)c1=O (centres unmarked)    1.98
15  Cn1c(=O)n(C2CC2)c(=O)n1-c1ccc(C(F)(F)F)c(SCC(F)(F)F)c1    3.23
16  Cn1c(=O)n(C2CC2)c(=O)n1-c1cc([S+]([O-])CC(F)(F)F)c(Cl)cc1F (centres unmarked)    2.16
17  CCCCN1CC(=O)N(c2cc([S+]([O-])CC(F)(F)F)c(C)cc2F)C1=O (centres unmarked)    2.43

====

Assay: log P determination by HPLC on reversed-phase columns (C 18), analogously to OECD Guideline 117
Type: physicochemical
Settings: reversed-phase C18 HPLC column; acidic range, pH 2.7, 0.1% aqueous formic acid and acetonitrile; read-out: log P[a] / log P(HCOOH)
Short version: chromatographic logP at least 3 is Fulfilled, less is Not fulfilled.

> print(dat)
                                    compound  classification
 1         Cc1cc(F)c(N2CCNC2=O)cc1SCC(F)(F)F   Not fulfilled
 2  Cc1cc(F)c(NC(=S)NCC(F)(F)F)cc1SCC(F)(F)F       Fulfilled
 3  Cc1cc(C)c(B2OC(C)(C)C(C)(C)O2)cc1SCC(F)(F)F       Fulfilled
 4  Cc1cc(F)c(-n2c(=O)n(C)n(C)c2=O)cc1SCC(F)(F)F   Not fulfilled
 5  Cc1cc(F)c(B2OC(C)(C)C(C)(C)O2)cc1SCC(F)(F)F       Fulfilled
 6     Cc1cc(F)c(N2C(=O)CCC2=O)cc1SCC(F)(F)F   Not fulfilled
 7    Cn1[nH]c(=O)n(-c2cccc(C(F)(F)F)c2)c1=O   Not fulfilled
 8  CC(C)n1[nH]c(=O)n(C)c1=O [drawing 120 R1=CH(CH3)2 R10=CH3]   Not fulfilled
 9  Cc1cc(F)c(N2CC(C)OC2=O)cc1[S+]([O-])CC(F)(F)F (centres unmarked)   Not fulfilled
10  Cc1ccc(-n2c(=O)n(C)c(=O)n2C)cc1SCC(F)(F)F   Not fulfilled
11  CCC(C)n1[nH]c(=O)n(C2CC2)c1=O (centres unmarked) [drawing 120 R1=CH(CH3)CH2CH3 R10=cyclopropyl]   Not fulfilled
12  CCn1c(=O)n(CC)n(-c2ccc(C)c(SCC(F)(F)F)c2)c1=O       Fulfilled
13  Cc1cc(F)c(N2CCOC2=O)cc1[S+]([O-])CC(F)(F)F (centres unmarked)   Not fulfilled
14  Cc1cc(F)c(N2C(=O)OCC2C)cc1[S+]([O-])CC(F)(F)F (centres unmarked)   Not fulfilled
15               Fc1cc(Cl)c(SCC(F)(F)F)cc1Br       Fulfilled
16  C=CCOc1n[nH]c(=O)n1C1CC1 [drawing 121 R1=CH2CH═CH2 R10=cyclopropyl]   Not fulfilled
17  Cc1cc(C)c([S+]([O-])CC(F)(F)F)cc1N1CCNC1=O (centres unmarked)   Not fulfilled
18  Cc1cc(F)c(N2C(=O)N(C)C(=O)C2(C)C)cc1[S+]([O-])CC(F)(F)F (centres unmarked)   Not fulfilled
19  Cc1cc(F)c(-n2c(=S)n(C3CC3)c(=O)n2C)cc1SCC(F)(F)F       Fulfilled

====

Assay: log P determination by HPLC on reversed-phase columns (C 18), analogously to OECD Guideline 117
Format: physicochemical
Settings: reversed-phase C18 HPLC column; acidic range, pH 2.7, 0.1% aqueous formic acid and acetonitrile; read-out: log P[a] / log P(HCOOH)
Label key: Fulfilled means chromatographic logP under 3; Not fulfilled means chromatographic logP of 3 or more.

> print(dat)
                                   compound  classification
1  Cn1c(OCc2ccccc2Cl)n[nH]c1=O [drawing 121 R1=2-chlorobenzyl R10=CH3]       Fulfilled
2                    CCn1[nH]c(=O)n(CC)c1=O       Fulfilled
3  CCn1c(=O)n(-c2ccccc2)c(=O)n1-c1cc(SCC(F)(F)F)c(C)cc1F   Not fulfilled
4  Cc1cc(F)c(N2CCCC2=NCC(F)(F)F)cc1SCC(F)(F)F       Fulfilled
5               Fc1cc(Br)c(SCC(F)(F)F)cc1Br   Not fulfilled
6         Cc1cc(F)c(N2CCOC2=O)cc1SCC(F)(F)F       Fulfilled
7             OB(O)c1ccc(Cl)c(SCC(F)(F)F)c1       Fulfilled
8  CCn1c(=O)n(-c2cc([S+]([O-])CC(F)(F)F)c(C)cc2F)c(=O)n1CC (stereo not drawn)       Fulfilled

====

Test: log P determination by HPLC on reversed-phase columns (C 18), analogously to OECD Guideline 117
Format: physicochemical
Conditions: LC-MS in the neutral range, pH 7.8, 0.001 molar aqueous ammonium hydrogencarbonate / acetonitrile, HPLC reversed-phase C 18
Short version: logP (neutral) at least 3 is label 1, less is label 0.

> print(dat)
                                    compound  classification
 1  CCC(C)n1c(=O)n(C2CC2)c(=O)n1-c1cc([S+]([O-])CC(F)(F)F)c(C)cc1F (centres unmarked)         label 0
 2  Cc1cc(F)c(N2C(=O)C(=O)N(C(C)(C)C)C2=S)cc1SCC(F)(F)F         label 1
 3  C=CCN1CC(=O)N(c2cc([S+]([O-])CC(F)(F)F)c(C)cc2F)C1=O (racemic)         label 0
 4  CCn1c(=O)n(C)c(=O)n1-c1ccc(C)c(SCC(F)(F)F)c1         label 0
 5  Cc1cc(F)c(-n2c(=O)n(-c3ccccc3)c(=O)n2C)cc1SCC(F)(F)F         label 1
 6  Cn1c(=O)n(C)n(-c2cc(SCC(F)(F)F)c(Cl)cc2F)c1=O         label 0
 7  Cc1cc(F)c(-n2c(=O)n(C3CC3)c(=O)n2C)cc1[S+]([O-])CC(F)(F)F (single isomer, unassigned) [Example 151]         label 0
 8  Cc1cc(F)c(-n2c(=O)n(C3CC3)c(=O)n2CC(F)(F)F)cc1[S+]([O-])CC(F)(F)F (centres unmarked)         label 0
 9  Cc1cc(F)c(-n2c(=O)n(C3CC3)c(=O)n2C)cc1[S+]([O-])CC(F)(F)F (single isomer, unassigned) [Example 197]         label 0
10  C=CCn1c(=O)n(C)n(-c2cc([S+]([O-])CC(F)(F)F)c(C)cc2F)c1=O (centres unmarked)         label 0
11  C=CCn1c(=O)n(C2CC2)c(=O)n1-c1cc(SCC(F)(F)F)c(C)cc1F         label 1
12  Cc1cc(F)c(-n2c(=O)n(CC3CC3)c(=O)n2C)cc1[S+]([O-])CC(F)(F)F (centres unmarked)         label 0
13  Cc1cc(F)c(-n2c(=O)n(C(C)C)c(=O)n2CC(F)(F)F)cc1SCC(F)(F)F         label 1
14  Cc1cc(F)c(-n2c(=O)n(C)c(=O)n2C2CCCC2)cc1SCC(F)(F)F         label 1
15  CCn1c(=O)n(C)n(-c2cc(SCC(F)(F)F)c(C)cc2F)c1=O         label 0
16  Cc1cc(F)c(-n2[nH]c(=O)n(-c3cccc(C(F)(F)F)c3)c2=O)cc1[S+]([O-])CC(F)(F)F (racemic)         label 0
17  Cc1ccc(-n2c(=O)n(C3CC3)c(=O)n2CC(C)C)cc1[S+]([O-])CC(F)(F)F (centres unmarked)         label 1
18  Cn1c(=O)n(C2CC2)c(=O)n1-c1ccc(Br)c([S+]([O-])CC(F)(F)F)c1 (centres unmarked)         label 0
19  Cc1ccc(-n2c(=O)n(C(C)C)c(=O)n2C)cc1SCC(F)(F)F         label 1
20  CCCn1c(=O)n(C)n(-c2cc(SCC(F)(F)F)c(C)cc2F)c1=O         label 1
21  Cc1cc(F)c(N2C(=O)C(C)(C)C(=O)N2c2ccccc2)cc1SCC(F)(F)F         label 1
22  C=CCn1c(=O)n(C)c(=O)n1-c1ccc(C)c(SCC(F)(F)F)c1         label 0
23  C=CCn1c(=O)n(C)c(=O)n1-c1ccc(C)c([S+]([O-])CC(F)(F)F)c1 (centres unmarked)         label 0
24  Cn1c(=O)n(C)n(-c2ccc(Br)c(SCC(F)(F)F)c2)c1=O         label 0
25  CCn1c(=O)n(C)n(-c2cc([S+]([O-])CC(F)(F)F)c(C)cc2F)c1=O (centres unmarked)         label 0
26  Cc1cc(F)c(N2C(=O)CSC2=NCC(C)(C)C)cc1[S+]([O-])CC(F)(F)F (racemic)         label 1
27  Cc1cc(C)c([S+]([O-])CC(F)(F)F)cc1-n1c(=O)n(C)c(=O)n1C (centres unmarked)         label 0
28  Cc1ccc(-n2c(=O)n(C)c(=O)n2-c2ccc(C)c(SCC(F)(F)F)c2)cc1SCC(F)(F)F         label 1
29  Cc1cc(F)c(-n2[nH]c(=O)n(C3CC3)c2=O)cc1SCC(F)(F)F [Example 207]         label 0
30  Cc1cc(F)c(-n2c(=O)n(C(C)(C)C)c(=O)n2C)cc1SCC(F)(F)F         label 1
31  Cc1cc(F)c(-n2c(=O)n(C3CC3)c(=O)n2C)cc1SCC(F)(F)F [Example 128]         label 1
